Data origin: ChEMBL document CHEMBL1909620

- system: Protein-arginine deiminase type-1 (Homo sapiens, UniProt Q9ULC6)
- Sequence (Q9ULC6 whole entry): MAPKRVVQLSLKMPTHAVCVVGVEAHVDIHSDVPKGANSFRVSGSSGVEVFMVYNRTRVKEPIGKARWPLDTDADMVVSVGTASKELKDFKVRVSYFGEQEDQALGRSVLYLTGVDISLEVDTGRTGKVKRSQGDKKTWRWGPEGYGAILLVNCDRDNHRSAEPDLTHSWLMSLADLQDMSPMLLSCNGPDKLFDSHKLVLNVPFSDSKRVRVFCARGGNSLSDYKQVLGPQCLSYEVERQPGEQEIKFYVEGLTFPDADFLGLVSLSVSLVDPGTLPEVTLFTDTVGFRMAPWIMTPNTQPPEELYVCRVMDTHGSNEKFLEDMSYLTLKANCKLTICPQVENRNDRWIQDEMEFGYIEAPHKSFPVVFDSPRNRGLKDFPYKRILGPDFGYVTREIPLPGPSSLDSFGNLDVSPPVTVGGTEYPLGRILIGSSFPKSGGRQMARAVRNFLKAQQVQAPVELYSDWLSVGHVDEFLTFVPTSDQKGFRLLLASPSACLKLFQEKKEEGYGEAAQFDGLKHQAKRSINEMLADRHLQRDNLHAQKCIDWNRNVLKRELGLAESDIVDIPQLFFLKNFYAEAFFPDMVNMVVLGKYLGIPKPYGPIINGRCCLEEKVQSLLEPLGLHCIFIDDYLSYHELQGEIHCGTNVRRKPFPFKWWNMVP
- assayProtocol: Irreversible inhibition of PAD1 assessed as hydrolysis of benzoyl-L-arginine ethyl ester preincubated for 15 mins measured after 15 mins by fluorometric analysis
pIC50: −log10 of the molar value.
assayMetric: pIC50

> print(dat)
                          molecularstring  assaymetric  numericresult
1  N=C(CF)NCCC[C@H](NC(=O)c1ccccc1)C(N)=O        pIC50           4.54

====

- system: Protein-arginine deiminase type-3 (Homo sapiens, UniProt Q9ULW8)
- Sequence (Q9ULW8 whole entry): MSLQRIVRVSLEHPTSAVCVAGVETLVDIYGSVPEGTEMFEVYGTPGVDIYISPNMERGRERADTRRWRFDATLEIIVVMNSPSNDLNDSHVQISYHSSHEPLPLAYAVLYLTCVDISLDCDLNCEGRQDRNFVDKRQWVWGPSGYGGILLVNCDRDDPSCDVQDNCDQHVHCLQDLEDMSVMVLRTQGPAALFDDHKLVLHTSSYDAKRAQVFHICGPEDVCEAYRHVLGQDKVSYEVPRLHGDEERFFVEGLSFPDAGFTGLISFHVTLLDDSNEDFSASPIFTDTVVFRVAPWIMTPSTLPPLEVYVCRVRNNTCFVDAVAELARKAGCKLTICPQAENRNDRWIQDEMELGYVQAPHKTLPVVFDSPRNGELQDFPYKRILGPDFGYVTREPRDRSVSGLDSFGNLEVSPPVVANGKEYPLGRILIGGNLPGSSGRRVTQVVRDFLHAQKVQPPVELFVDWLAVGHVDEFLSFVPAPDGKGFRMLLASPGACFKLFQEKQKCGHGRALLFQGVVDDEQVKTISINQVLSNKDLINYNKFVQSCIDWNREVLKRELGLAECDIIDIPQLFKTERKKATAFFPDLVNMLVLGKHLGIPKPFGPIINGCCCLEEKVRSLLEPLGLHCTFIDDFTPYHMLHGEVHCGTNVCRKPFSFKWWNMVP
- assayProtocol: Irreversible inhibition of PAD3 assessed as hydrolysis of benzoyl-L-arginine ethyl ester preincubated for 15 mins measured after 15 mins by fluorometric analysis
assayMetric: IC50 (µM)

> print(dat)
                          molecularstring  measureunit  numericresult
1  N=C(CF)NCCC[C@H](NC(=O)c1ccccc1)C(N)=O           µM            367

====

- system: Protein-arginine deiminase type-3 (Homo sapiens, UniProt Q9ULW8)
- assayProtocol: Irreversible inhibition of PAD3 assessed as hydrolysis of benzoyl-L-arginine ethyl ester preincubated for 15 mins measured after 15 mins by fluorometric analysis
pKi: −log10 of the molar value.
assayMetric: pKi

> print(dat)
                          molecularstring  assaymetric  numericresult
1  N=C(CF)NCCC[C@H](NC(=O)c1ccccc1)C(N)=O          pKi           3.53

====

- system: Protein-arginine deiminase type-4 (Homo sapiens, UniProt Q9UM07)
- Sequence (Q9UM07 whole entry): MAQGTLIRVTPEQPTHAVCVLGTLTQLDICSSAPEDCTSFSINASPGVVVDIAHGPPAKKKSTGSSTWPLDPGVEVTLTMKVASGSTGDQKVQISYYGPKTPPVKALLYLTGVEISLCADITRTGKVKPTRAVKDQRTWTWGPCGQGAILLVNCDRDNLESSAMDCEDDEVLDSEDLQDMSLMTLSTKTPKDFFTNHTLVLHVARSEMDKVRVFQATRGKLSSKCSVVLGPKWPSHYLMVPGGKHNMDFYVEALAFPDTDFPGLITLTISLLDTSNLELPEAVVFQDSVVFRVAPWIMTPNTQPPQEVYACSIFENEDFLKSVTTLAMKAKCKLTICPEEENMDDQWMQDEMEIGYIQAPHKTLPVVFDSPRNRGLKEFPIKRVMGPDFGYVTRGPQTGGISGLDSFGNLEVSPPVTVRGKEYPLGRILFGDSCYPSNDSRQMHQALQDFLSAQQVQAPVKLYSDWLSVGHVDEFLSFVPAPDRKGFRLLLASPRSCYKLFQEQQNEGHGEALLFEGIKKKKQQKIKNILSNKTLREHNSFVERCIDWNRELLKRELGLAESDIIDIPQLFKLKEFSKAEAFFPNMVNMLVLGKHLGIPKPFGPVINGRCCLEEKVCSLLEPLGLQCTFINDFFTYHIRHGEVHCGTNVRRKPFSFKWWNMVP
- assayProtocol: Irreversible inhibition of PAD4 assessed as hydrolysis of benzoyl-L-arginine ethyl ester preincubated for 15 mins measured after 15 mins by fluorometric analysis
pIC50: −log10 of the molar value.
Measured pIC50 accompanies every entry in the list below.
assayMetric: pIC50

> print(dat)
                            molecularstring  limitqualifier  numericresult
1  N=C(CF)Nc1cccc(C[C@H](NC(=O)c2ccccc2)C(N)=O)c1               =           3.51
2                                  N=C(N)CF               <           2.00
3            N=C(CF)NCCCCNS(=O)(=O)c1ccccc1               <           3.00
4  N=C(CF)NCCC[C@H](NC(=O)c1c[nH]cn1)C(N)=O               =           3.64
5  N=C(CF)NCCC[C@H](NS(=O)(=O)c1ccccc1)C(N)=O               =           3.30
6  N=C(CF)Nc1cccc([C@H](NC(=O)c2ccccc2)C(N)=O)c1               =           2.68

====

- system: Protein-arginine deiminase type-2 (Homo sapiens)
- Sequence (Q9Y2J8 whole entry): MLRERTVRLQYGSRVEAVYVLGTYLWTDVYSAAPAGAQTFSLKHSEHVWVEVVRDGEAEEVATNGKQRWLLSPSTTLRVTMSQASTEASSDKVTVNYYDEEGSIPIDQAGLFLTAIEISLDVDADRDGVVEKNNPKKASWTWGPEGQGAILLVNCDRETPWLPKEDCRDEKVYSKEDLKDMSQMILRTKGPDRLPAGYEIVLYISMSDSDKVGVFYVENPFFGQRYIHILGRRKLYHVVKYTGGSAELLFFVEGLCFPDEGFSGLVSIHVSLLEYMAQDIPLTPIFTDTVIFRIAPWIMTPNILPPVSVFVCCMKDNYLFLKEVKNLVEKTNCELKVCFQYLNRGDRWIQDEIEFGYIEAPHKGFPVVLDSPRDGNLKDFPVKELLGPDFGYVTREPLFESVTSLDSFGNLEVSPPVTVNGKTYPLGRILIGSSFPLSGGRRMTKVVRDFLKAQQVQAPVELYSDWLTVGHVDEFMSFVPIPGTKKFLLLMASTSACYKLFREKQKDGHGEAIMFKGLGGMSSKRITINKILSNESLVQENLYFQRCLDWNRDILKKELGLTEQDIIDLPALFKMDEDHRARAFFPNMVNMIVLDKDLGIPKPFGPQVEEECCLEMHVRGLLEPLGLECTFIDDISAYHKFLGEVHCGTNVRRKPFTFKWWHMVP
- assayProtocol: Irreversible inhibition of PAD2 assessed as hydrolysis of benzoyl-L-arginine ethyl ester preincubated for 15 mins measured after 15 mins by fluorometric analysis
assayMetric: IC50

> print(dat)
                            molecularstring  assaymetric   result
1  N=C(CF)NCCC[C@H](NC(=O)c1ccccc1C(=O)O)C(N)=O.O=C(O)C(F)(F)F         IC50  ≥ 50 µM

====

- system: Protein-arginine deiminase type-4 (Homo sapiens)
- assayProtocol: Irreversible inhibition of PAD4 assessed as hydrolysis of benzoyl-L-arginine ethyl ester preincubated for 15 mins measured after 15 mins by fluorometric analysis
Measured IC50 accompanies every entry in the list below.
assayMetric: IC50

> print(dat)
                            molecularstring    result
1                         N=C(CF)NCc1ccccc1    > 1 mM
2                N=C(CF)NCCCCNC(=O)c1ccccc1    > 1 mM
3                               CCCNC(=N)CF    > 1 mM
4                          N=C(CF)Nc1ccccc1  > 0.5 mM
5  N=C(CF)NCc1ccc(C[C@H](NC(=O)c2ccccc2)C(N)=O)cc1    > 1 mM
6  N=C(CF)Nc1ccc(C[C@H](NC(=O)c2ccccc2)C(N)=O)cc1   0.31 mM
